The reported numbers originate from paper PMC11062922.

- Test system: RPS6KA4
- Set-up: species or system human, MV4-11 + K-562 + COLO205 + SK-N-BE2 + OVCAR-8
- recorded-conditions: read-out: apparent Kd; compound concentrations:100 nM and 1000 nM (sheet 'Samples'); n = 1
measured-metric: potency estimated from few doses (nM)
// return numeric value only (unit: nM, not printed)

1) COc1cc[nH]c1/C=C1\C(=O)Nc2ccc(F)c(C#C[C@@H](O)[C@@H](N)[C@@H](C)O)c21: 421
2) O=C(O)C(F)(F)F.O=c1[nH]ccc2nc(N[C@@H]3CCNC3)nc(Nc3cc(Cl)cc(Cl)c3)c12 [GSK2188764A]: 472

So the reported potency estimated from few doses for O=C1NC(=O)C(N2CCc3ccccc32)=C1c1ccccc1Cl , on RPS6KA4, turned out to be 1220

Query CNC(=O)c1ccccc1Nc1nc(Nc2ccc(N3CCOCC3)cc2)ncc1Cl.Cl [GSK1576028A] on RPS6KA4; potency estimated from few doses returned: 427

Record for CN1C[C@@H]2Cn3c(c(C4=C(c5cn(C)c6ccccc56)C(=O)NC4=O)c4ccccc43)C[C@H]2C1.Cl under target or system RPS6KA4: potency estimated from few doses reported as 1630

Measured potency estimated from few doses for this entry CCn1c(-c2nonc2N)nc2cncc(C(=O)N3CC[C@H](N)C3)c21.Cl on RPS6KA4: 82.6

The reported RPS6KA4 potency estimated from few doses of NCCNS(=O)(=O)c1ccc(-c2ccnc3[nH]ccc23)cc1 [GSK977617A] is 588
